Below: a set of entries, each annotated with reported Activity.
Experiment: Increase in neuronal survival in embryonic chick dorsal root ganglion sensory neurons assessed as normalized neuronal survival response equivalent to 20% for BDNF after 48 hrs
Assay type: functional, Gallus gallus, DRG neuron
Give a plain numeric answer without units written out.

Worked set:
structure_as_smiles: C[C@@H]1NC(=O)[C@H]2CCCN2C(=O)[C@H](CCCNC(=N)N)NC(=O)[C@H](CCCCN)NC(=O)[C@H](CCCCN)NC1=O
Activity: 7.3

structure_as_smiles: CCCCCCCC(=O)NCCCC[C@@H]1NC(=O)[C@H]2CCCN2C(=O)[C@H](CCCNC(=N)N)NC(=O)[C@H](CCCCN)NC(=O)[C@H](CCCCN)NC1=O
Activity: 7.5

structure_as_smiles: CCCC[C@@H]1NC(=O)[C@H]2CCCN2C(=O)[C@H](CCCNC(=N)N)NC(=O)[C@H](CCCCN)NC(=O)[C@H](CCCCN)NC1=O
Activity: 6.2

structure_as_smiles: CCCCCCCCCCCCCCCC(=O)NCCCC[C@@H]1NC(=O)[C@H]2CCCN2C(=O)[C@H](CCCNC(=N)N)NC(=O)[C@H](CCCCN)NC(=O)[C@H](CCCCN)NC1=O
Activity: 9.1

Please report the recorded Activity for CCCCC(=O)NCCCC[C@@H]1NC(=O)[C@H]2CCCN2C(=O)[C@H](CCCNC(=N)N)NC(=O)[C@H](CCCCN)NC(=O)[C@H](CCCCN)NC1=O .
7.7

Would you kindly repeat that for N=C(N)NCCC[C@@H]1NC(=O)[C@H](CCCCN)NC(=O)[C@H](CCCCN)NC(=O)[C@H](CCCCN)NC(=O)[C@H]2CCCN2C1=O ?
7.5

Would you kindly repeat that for N=C(N)NCCC[C@@H]1NC(=O)[C@H](CCCCN)NC(=O)[C@H](CCCCN)NC(=O)[C@H](Cc2ccccc2)NC(=O)[C@H]2CCCN2C1=O ?
5.3
